Tested on: UACC-62 melanoma
Assay: NCI tumour cell line growth inhibition, 48 h
Each item that follows carries a reported TGI.

O=c1ccn(C2(CO)C=C(CO)C(O)C2O)c(=O)[nH]1 (stereo not given) = > 25.7 µM
COc1ccc(-c2nc(-c3cnccn3)n(Cc3ccccc3)n2)cc1 = > 100 µM
NC(CCc1ncc(-c2ccccc2)s1)C(=O)O (stereo not given) = > 100 µM
O=C1NC(=O)[C@@H](c2c[nH]c3ccccc23)[C@@H]1c1c[nH]c2ccccc12 = > 25 µM
O=C1c2cc3c(cc2CC1Cc1ccc2c(c1)CCC2)CCC3 (stereo not given) = > 100 µM
O=c1[nH]nc(Cc2ccc(Cl)cc2)n1/N=C/c1c[nH]c2ccccc12 = > 100 µM
C[C@@]12C[C@@H](c3ccccc3O1)N1Cc3ccccc3CSC1=N2 = > 100 µM
CC(=O)O[C@H]1C[C@](C)(O)[C@@]23CC([C@@H](OC(=O)C(C)(C)O)[C@@H](OC(C)=O)C2(COC(=O)c2ccccc2)[C@H]1OC(C)=O)C(C)(C)O3 (stereo not given in full) = > 100 µM
CCOc1cc2c(=O)oc3c(OC)ccc4ccc(c1OC)c2c43 = > 100 µM
CN(C(=O)C12C3C4C1C1C2C3C41C(O)C(C)(C)C)C(C)(C)C (stereo not given) = > 100 µM

TGI recorded for this compound, CC(=O)OCC1OC(SC2=NC(=O)/C(=C/c3ccccc3)S2)C(OC(C)=O)C(OC(C)=O)C1OC(C)=O (stereo not given) , is 87.2 µM

Item: OCC(O)COc1c(Cl)cc(Cl)cc1Cl (stereo not given) | TGI: > 100 µM

Measured TGI, CC(C)CN1CC(C)C(=O)NC1=O (stereo not given) : > 100 µM

Kindly note the recorded TGI for `COc1cnc2c(c1)C(=O)c1c-2n(CCCNCCN2CCOCC2)c(=O)c2cc([N+](=O)[O-])ccc12` , which is 0.434 µM

The measured TGI associated with CCCCCCCCCCCC1=NC(C)(C)CN1CC(C)O (stereo not given) reads 3.47 µM

Form field TGI, entry `COc1cc([C@@H]2c3cc4c(cc3[C@@H](c3c(O)cc(O)c5c3O[C@H](c3ccc(O)c(O)c3)[C@H](OC(=O)c3cc(O)c(O)c(O)c3)C5)[C@H]3COC(=O)[C@H]23)OCO4)cc(OC)c1O` : > 100 µM

Field TGI (entry `CNC(=O)c1cc(Oc2ccc3nc(N[C@@H]4CCCC[C@H]4O)sc3c2)ccn1` ) reads > 100 µM

// TGI value for `CCOC(=O)Cn1c(-c2nonc2NC(=O)c2ccccc2F)nc2ccccc21` : > 100 µM

response.value for `CCC(=O)N1C(=O)C(CC)(CC)C(=O)N1C(=O)CC` (field: TGI) = > 100 µM

For this compound ( `O=C1CCCC(O)=C1SC1=C(O)CCCC1=O` ), measured TGI is > 100 µM
